These data points were gathered from ChEMBL document CHEMBL4052747.

target: UniProtKB P41145; test: Agonist activity at human kappa opioid receptor expressed in CHO-K1 cells assessed as inhibition of forskolin-induced cAMP accumulation by TR-FRET assay; format: functional, cell-based
Give Emax for every item shown.
Give bare numbers, in %.

Answered cases to consult:
CN(C(=O)/C=C/c1ccc(O)cc1)[C@@H]1CC[C@@]2(O)[C@H]3[C@@H](O)c4ccc(O)c5c4[C@@]2(CCN3CC2CC2)[C@H]1O5 :: 98
CN(C(=O)/C=C/c1ccsc1)[C@@H]1CC[C@@]2(O)[C@H]3[C@@H](O)c4ccc(O)c5c4[C@@]2(CCN3CC2CC2)[C@H]1O5 :: 101
CN(C(=O)C#Cc1ccccc1)[C@@H]1CC[C@@]2(O)[C@H]3[C@@H](O)c4ccc(O)c5c4[C@@]2(CCN3CC2CC2)[C@H]1O5 :: 102
CN(C(=O)/C=C/c1ccco1)[C@@H]1CC[C@@]2(O)[C@H]3[C@@H](O)c4ccc(O)c5c4[C@@]2(CCN3CC2CC2)[C@H]1O5 :: 102

Please find the next compound below.
Hello, please tell me recorded Emax for this one: `CN(C(=O)c1ccccc1)[C@@H]1CC[C@@]2(O)[C@H]3[C@@H](O)c4ccc(O)c5c4[C@@]2(CCN3CC2CC2)[C@H]1O5`
23

###

target: Kappa-type opioid receptor (Homo sapiens); assay: Agonist activity at human kappa opioid receptor expressed in CHO-K1 cells assessed as inhibition of forskolin-induced cAMP accumulation by TR-FRET assay; format: functional, cell-based
Sequence (P41145 whole entry): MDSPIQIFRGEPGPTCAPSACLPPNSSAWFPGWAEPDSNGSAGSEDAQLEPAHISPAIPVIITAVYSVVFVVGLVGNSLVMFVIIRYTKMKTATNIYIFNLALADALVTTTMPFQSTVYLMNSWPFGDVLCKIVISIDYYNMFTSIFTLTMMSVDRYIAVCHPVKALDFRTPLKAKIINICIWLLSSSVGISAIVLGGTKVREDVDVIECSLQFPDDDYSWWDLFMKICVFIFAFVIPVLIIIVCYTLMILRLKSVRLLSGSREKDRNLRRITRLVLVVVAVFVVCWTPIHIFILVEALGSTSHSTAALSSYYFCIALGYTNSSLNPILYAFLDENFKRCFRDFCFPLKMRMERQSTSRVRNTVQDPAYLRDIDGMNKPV
Assignment: determine reported Emax for the given compounds.
One number for each entry, in %.

Known Emax results, listed for orientation:
CN(C(=O)/C=C/c1cccnc1)[C@@H]1CC[C@@]2(O)[C@H]3[C@@H](O)c4ccc(O)c5c4[C@@]2(CCN3CC2CC2)[C@H]1O5 :: 101
CN(C(=O)/C=C/c1ccoc1)[C@@H]1CC[C@@]2(O)[C@H]3[C@@H](O)c4ccc(O)c5c4[C@@]2(CCN3CC2CC2)[C@H]1O5 :: 99
Cc1ccc(/C=C/C(=O)N(C)[C@@H]2CC[C@@]3(O)[C@H]4[C@@H](O)c5ccc(O)c6c5[C@@]3(CCN4CC3CC3)[C@H]2O6)cc1 :: 101
CN(C(=O)/C=C/c1ccc(Cl)cc1)[C@@H]1CC[C@@]2(O)[C@H]3[C@@H](O)c4ccc(O)c5c4[C@@]2(CCN3CC2CC2)[C@H]1O5 :: 99
CN(C(=O)Cc1ccccc1)[C@@H]1CC[C@@]2(O)[C@H]3[C@@H](O)c4ccc(O)c5c4[C@@]2(CCN3CC2CC2)[C@H]1O5 :: 18

Give Emax for the following compound: `CN(C(=O)COc1ccccc1)[C@@H]1CC[C@@]2(O)[C@H]3[C@@H](O)c4ccc(O)c5c4[C@@]2(CCN3CC2CC2)[C@H]1O5`
97

###

target: Mu-type opioid receptor (Homo sapiens); test: Agonist activity at human mu opioid receptor expressed in CHO-dhfr(-) cells assessed as inhibition of forskolin-induced cAMP accumulation by TR-FRET assay; type: functional, cell-based
Would you mind telling me the reported pEC50 of each entry?
Give bare numbers, as −log10 of the molar value.

Some compounds with recorded pEC50:
CN(C(=O)/C=C/c1cccs1)[C@@H]1CC[C@@]2(O)[C@H]3[C@@H](O)c4ccc(O)c5c4[C@@]2(CCN3CC2CC2)[C@H]1O5 :: 5.31
CN(C(=O)/C=C/c1cccnc1)[C@@H]1CC[C@@]2(O)[C@H]3[C@@H](O)c4ccc(O)c5c4[C@@]2(CCN3CC2CC2)[C@H]1O5 :: 5.42

Record pEC50 per entry; entries follow.
1. CN(C(=O)/C=C/c1ccsc1)[C@@H]1CC[C@@]2(O)[C@H]3[C@@H](O)c4ccc(O)c5c4[C@@]2(CCN3CC2CC2)[C@H]1O5
2. CN(C(=O)/C=C/c1ccccc1)[C@@H]1CC[C@@]2(O)[C@H]3[C@@H](O)c4ccc(O)c5c4[C@@]2(CCN3CC2CC2)[C@H]1O5
3. Cc1ccc(/C=C/C(=O)N(C)[C@@H]2CC[C@@]3(O)[C@H]4[C@@H](O)c5ccc(O)c6c5[C@@]3(CCN4CC3CC3)[C@H]2O6)cc1

1: 6.96; 2: 6.68; 3: 6.51

Hey, can you go through the list below and give me pEC50 for every item?
1. CN(C(=O)/C=C/c1ccccn1)[C@@H]1CC[C@@]2(O)[C@H]3[C@@H](O)c4ccc(O)c5c4[C@@]2(CCN3CC2CC2)[C@H]1O5
2. CN(C(=O)CCc1ccccc1)[C@@H]1CC[C@@]2(O)[C@H]3[C@@H](O)c4ccc(O)c5c4[C@@]2(CCN3CC2CC2)[C@H]1O5
3. CN(C(=O)C#Cc1ccccc1)[C@@H]1CC[C@@]2(O)[C@H]3[C@@H](O)c4ccc(O)c5c4[C@@]2(CCN3CC2CC2)[C@H]1O5
4. CN(C(=O)/C=C/c1ccco1)[C@@H]1CC[C@@]2(O)[C@H]3[C@@H](O)c4ccc(O)c5c4[C@@]2(CCN3CC2CC2)[C@H]1O5

[5.54, 4.74, 6.04, 4.85]

###

target: Mu-type opioid receptor (Homo sapiens, UniProt P35372); experiment: Agonist activity at mu opioid receptor (unknown origin)
Sequence (P35372 whole entry): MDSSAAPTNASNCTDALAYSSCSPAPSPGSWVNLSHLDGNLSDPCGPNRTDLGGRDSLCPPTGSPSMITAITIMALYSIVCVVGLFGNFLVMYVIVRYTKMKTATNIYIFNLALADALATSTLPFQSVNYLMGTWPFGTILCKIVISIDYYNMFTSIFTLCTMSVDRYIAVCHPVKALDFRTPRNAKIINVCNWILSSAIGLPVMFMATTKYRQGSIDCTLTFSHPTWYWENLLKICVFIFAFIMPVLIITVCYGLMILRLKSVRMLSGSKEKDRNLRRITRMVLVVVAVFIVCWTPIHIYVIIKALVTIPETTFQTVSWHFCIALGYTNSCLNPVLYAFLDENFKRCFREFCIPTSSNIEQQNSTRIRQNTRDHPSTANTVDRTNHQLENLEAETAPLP
Where a name gives a salt, the structure may show the parent alone.
Quantity Name: pEC50
Give bare numbers, as −log10 of the molar value.

Return pEC50 (reported value) for this compound: CN(C(=O)/C=C/c1ccoc1)[C@@H]1CC[C@@]2(O)[C@H]3Cc4ccc(O)c5c4[C@@]2(CCN3CC2CC2)[C@H]1O5 [NALFURAFINE HYDROCHLORIDE]
8.77

###

biological target: UniProt P35372; assay: Agonist activity at human mu opioid receptor expressed in CHO-dhfr(-) cells assessed as inhibition of forskolin-induced cAMP accumulation by TR-FRET assay; format: functional, cell-based
Use 1 (yes) when the recorded Emax is no lower than 90%; use 0 (no) when it is lower.

Previously resolved entries follow.
CN(C(=O)/C=C/c1ccncc1)[C@@H]1CC[C@@]2(O)[C@H]3[C@@H](O)c4ccc(O)c5c4[C@@]2(CCN3CC2CC2)[C@H]1O5 :: 0 (no)
CN(C(=O)/C=C/c1cccs1)[C@@H]1CC[C@@]2(O)[C@H]3[C@@H](O)c4ccc(O)c5c4[C@@]2(CCN3CC2CC2)[C@H]1O5 :: 0 (no)

Is reported Emax greater than or equal to 90% here: `CN(C(=O)/C=C/c1ccccc1)[C@@H]1CC[C@@]2(O)[C@H]3[C@@H](O)c4ccc(O)c5c4[C@@]2(CCN3CC2CC2)[C@H]1O5`
1 (yes)

Is Emax at least 90%? Consider `CN(C(=O)c1ccccc1)[C@@H]1CC[C@@]2(O)[C@H]3[C@@H](O)c4ccc(O)c5c4[C@@]2(CCN3CC2CC2)[C@H]1O5`
0 (no)

Check the entry `CN(C(=O)/C=C/c1ccco1)[C@@H]1CC[C@@]2(O)[C@H]3[C@@H](O)c4ccc(O)c5c4[C@@]2(CCN3CC2CC2)[C@H]1O5` : does Emax equal or exceed 90%?
0 (no)

Does the compound `CN(C(=O)/C=C/c1cccnc1)[C@@H]1CC[C@@]2(O)[C@H]3[C@@H](O)c4ccc(O)c5c4[C@@]2(CCN3CC2CC2)[C@H]1O5` have recorded Emax that is 90% or more?
0 (no)

Determine whether this compound has Emax no lower than 90%: `CN(C(=O)/C=C/c1ccc(O)cc1)[C@@H]1CC[C@@]2(O)[C@H]3[C@@H](O)c4ccc(O)c5c4[C@@]2(CCN3CC2CC2)[C@H]1O5`
0 (no)

Is it the case that `CN(C(=O)COc1ccccc1)[C@@H]1CC[C@@]2(O)[C@H]3[C@@H](O)c4ccc(O)c5c4[C@@]2(CCN3CC2CC2)[C@H]1O5` has Emax reaching or exceeding 90%?
0 (no)

Check if Emax >= 90% (inclusive). Item: `CN(C(=O)Cc1ccccc1)[C@@H]1CC[C@@]2(O)[C@H]3[C@@H](O)c4ccc(O)c5c4[C@@]2(CCN3CC2CC2)[C@H]1O5`
0 (no)

Could you verify whether the entry `CN(C(=O)/C=C/c1ccsc1)[C@@H]1CC[C@@]2(O)[C@H]3[C@@H](O)c4ccc(O)c5c4[C@@]2(CCN3CC2CC2)[C@H]1O5` shows Emax of no less than 90%?
1 (yes)

Determine whether measured Emax meets or exceeds 90% for `CN(C(=O)CCCc1ccccc1)[C@@H]1CC[C@@]2(O)[C@H]3[C@@H](O)c4ccc(O)c5c4[C@@]2(CCN3CC2CC2)[C@H]1O5`
1 (yes)

Textbook exercise: given the entry `Cc1ccc(/C=C/C(=O)N(C)[C@@H]2CC[C@@]3(O)[C@H]4[C@@H](O)c5ccc(O)c6c5[C@@]3(CCN4CC3CC3)[C@H]2O6)cc1` , state whether its Emax is greater than or equal to 90%.
0 (no)

Determine whether measured Emax meets or exceeds 90% for `CN(C(=O)C#Cc1ccccc1)[C@@H]1CC[C@@]2(O)[C@H]3[C@@H](O)c4ccc(O)c5c4[C@@]2(CCN3CC2CC2)[C@H]1O5`
1 (yes)

API: above_or_equal(metric=Emax, cutoff=90%) for item `CN(C(=O)CCc1ccccc1)[C@@H]1CC[C@@]2(O)[C@H]3[C@@H](O)c4ccc(O)c5c4[C@@]2(CCN3CC2CC2)[C@H]1O5`
0 (no)
